- MEASURED_TARGET: T1, human KDR (VEGFR2) on cells (human, UniProt P35968 20-1356)
- T1 construct: whole, on cells; also called native KDR on HUVEC; endogenously expressed KDR
- T1 sequence (P35968 20-1356): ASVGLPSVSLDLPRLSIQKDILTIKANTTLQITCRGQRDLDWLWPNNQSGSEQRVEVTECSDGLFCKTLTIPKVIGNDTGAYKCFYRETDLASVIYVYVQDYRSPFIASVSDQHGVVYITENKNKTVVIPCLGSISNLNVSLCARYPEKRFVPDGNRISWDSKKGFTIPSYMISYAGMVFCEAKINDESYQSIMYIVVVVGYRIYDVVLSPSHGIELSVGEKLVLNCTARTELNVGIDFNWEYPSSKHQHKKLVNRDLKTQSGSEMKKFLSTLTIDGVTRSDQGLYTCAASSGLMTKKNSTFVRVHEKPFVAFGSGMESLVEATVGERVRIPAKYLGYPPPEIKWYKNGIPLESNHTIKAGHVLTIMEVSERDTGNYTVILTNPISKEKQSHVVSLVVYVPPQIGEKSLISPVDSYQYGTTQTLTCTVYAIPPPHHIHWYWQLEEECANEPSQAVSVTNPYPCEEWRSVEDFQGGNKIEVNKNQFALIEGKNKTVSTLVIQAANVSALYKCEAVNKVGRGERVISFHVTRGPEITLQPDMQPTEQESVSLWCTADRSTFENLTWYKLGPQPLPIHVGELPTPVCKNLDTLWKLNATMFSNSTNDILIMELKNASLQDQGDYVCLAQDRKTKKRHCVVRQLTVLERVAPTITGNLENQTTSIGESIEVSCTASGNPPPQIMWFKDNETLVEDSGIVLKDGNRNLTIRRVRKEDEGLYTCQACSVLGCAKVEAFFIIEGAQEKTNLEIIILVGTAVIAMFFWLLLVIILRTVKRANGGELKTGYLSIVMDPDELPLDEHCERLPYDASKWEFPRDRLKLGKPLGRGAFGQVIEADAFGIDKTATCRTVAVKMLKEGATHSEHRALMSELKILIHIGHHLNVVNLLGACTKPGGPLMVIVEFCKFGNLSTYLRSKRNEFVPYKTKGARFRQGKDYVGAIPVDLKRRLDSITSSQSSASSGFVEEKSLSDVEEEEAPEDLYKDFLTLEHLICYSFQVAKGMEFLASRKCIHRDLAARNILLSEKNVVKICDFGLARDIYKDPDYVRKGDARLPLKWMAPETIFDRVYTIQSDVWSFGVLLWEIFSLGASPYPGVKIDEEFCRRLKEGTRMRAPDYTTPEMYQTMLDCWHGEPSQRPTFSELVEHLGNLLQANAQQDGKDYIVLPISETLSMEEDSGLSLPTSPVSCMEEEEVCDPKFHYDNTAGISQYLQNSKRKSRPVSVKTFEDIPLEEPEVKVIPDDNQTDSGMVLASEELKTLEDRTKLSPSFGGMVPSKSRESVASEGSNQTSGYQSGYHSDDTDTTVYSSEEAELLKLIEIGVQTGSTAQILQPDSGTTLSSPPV
- PROTOCOL_NOTES: FACS on HUVEC, hybridoma supernatant 1:50
- Description: HUVECs were seeded at 15,000 cells/well and incubated with 100 μL of sample supernatant (at 1:50 dilution) for one hour at 4° C. The positive control was goat anti-KDR antibody (R&D Systems, Inc.), and negative controls included irrelevant hybridoma supernatants at the same dilution. The cells were then washed and incubated with Cy5-conjugated goat anti-human antibody at 5 μg/mL and 7-Amino-Actinomycin D (7AAD) at 5 μg/mL for 15 minutes at 4° C. Bound KDR was detected using FACS analysis.
MEASURED_PARAMETER: FACS Geometric Mean
Please respond with just the number, no unit label.

BINDER	OBSERVED
anti-KDR monoclonal antibody 31E11 (antibody, V domains shown, Fully human mAb from XenoMouse (IgG2 or IgG4 strain); hybridoma supernatant) VH: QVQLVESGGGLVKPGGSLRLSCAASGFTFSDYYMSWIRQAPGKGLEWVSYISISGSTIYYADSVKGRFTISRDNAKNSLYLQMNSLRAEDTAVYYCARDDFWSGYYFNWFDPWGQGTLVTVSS VL: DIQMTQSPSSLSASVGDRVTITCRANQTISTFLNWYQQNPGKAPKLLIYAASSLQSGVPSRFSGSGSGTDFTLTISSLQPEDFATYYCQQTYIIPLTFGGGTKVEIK	18
anti-KDR monoclonal antibody 29F7 (antibody, V domains shown, Fully human mAb from XenoMouse (IgG2 or IgG4 strain); hybridoma supernatant) VH: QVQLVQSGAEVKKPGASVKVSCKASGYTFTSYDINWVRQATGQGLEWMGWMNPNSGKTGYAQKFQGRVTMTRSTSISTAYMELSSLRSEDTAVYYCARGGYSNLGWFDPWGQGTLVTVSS VL: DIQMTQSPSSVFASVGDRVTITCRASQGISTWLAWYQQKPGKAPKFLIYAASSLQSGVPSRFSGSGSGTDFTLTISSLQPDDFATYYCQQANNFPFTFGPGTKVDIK	32
anti-KDR monoclonal antibody 33B1 (antibody, V domains shown, Fully human mAb from XenoMouse (IgG2 or IgG4 strain); hybridoma supernatant) VH: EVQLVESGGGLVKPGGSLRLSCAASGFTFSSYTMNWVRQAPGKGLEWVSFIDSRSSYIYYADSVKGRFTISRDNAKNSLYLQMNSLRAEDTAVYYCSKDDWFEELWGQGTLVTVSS VL: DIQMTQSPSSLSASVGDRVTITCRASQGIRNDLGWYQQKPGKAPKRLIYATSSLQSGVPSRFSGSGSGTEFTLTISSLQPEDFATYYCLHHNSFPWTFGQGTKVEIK	25
anti-KDR monoclonal antibody 29A3 (antibody, V domains shown, Fully human mAb from XenoMouse (IgG2 or IgG4 strain); hybridoma supernatant) VH: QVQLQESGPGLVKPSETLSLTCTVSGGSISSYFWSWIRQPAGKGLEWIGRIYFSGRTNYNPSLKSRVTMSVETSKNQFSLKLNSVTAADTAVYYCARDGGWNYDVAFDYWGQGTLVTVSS VL: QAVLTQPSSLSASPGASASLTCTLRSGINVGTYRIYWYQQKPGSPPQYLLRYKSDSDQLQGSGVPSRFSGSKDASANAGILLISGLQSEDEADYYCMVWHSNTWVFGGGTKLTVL	30

Next binder, please.
IN: Data request, read-out FACS Geometric Mean, for anti-KDR monoclonal antibody 21H6 (antibody, V domains shown, Fully human mAb from XenoMouse; hybridoma supernatant) VH: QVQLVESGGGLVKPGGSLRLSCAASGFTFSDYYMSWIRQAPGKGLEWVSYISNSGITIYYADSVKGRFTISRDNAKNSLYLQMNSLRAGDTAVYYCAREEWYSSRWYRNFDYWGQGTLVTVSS VL: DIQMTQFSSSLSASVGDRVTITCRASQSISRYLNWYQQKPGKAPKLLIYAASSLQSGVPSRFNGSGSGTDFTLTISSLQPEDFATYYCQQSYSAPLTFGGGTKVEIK
OUT: 18
